The measurements presented in this section are drawn from ChEMBL document CHEMBL1201862.

Would you mind telling me the reported GI50 of each entry?
test system: SF-295; assay: NCI tumour cell line growth inhibition, 48 h
Calls of active or inactive are those of the source. Cut-off read from the data, not from the text of the source: active = GI50 up to about 1.1 µM and inactive = higher.

Recorded GI50, per entry:
>>> df
                                   molecule        readout_value
0  CC(C)NC(=O)OCc1c(COC(=O)NC(C)C)c(-c2ccc[n+](COC(=O)CC(C)(C)C)c2)n2c1CCC2   60.5 µM (inactive)
1  N#Cc1ccccc1NC(=O)/C(=N\N)C(C(=O)c1ccncc1)C1OC(=O)c2ccccc21 (stereo not given)  > 100 µM (inactive)
2     CCOP(=O)(OCC)/C(C#N)=C/c1ccnc2ccccc12   24.2 µM (inactive)
3  C=C(COC(C)=O)CC(/C=C(\C)CC/C=C(\C)CO)OC(C)=O (stereo not given)  > 100 µM (inactive)

Query molecule follows.
Entry Cc1cccc(NC(=O)c2c(N)[n+]([O-])c3ccccc3[n+]2[O-])c1 — recorded GI50 = 10.9 µM (inactive)
